molecular target: Aldehyde dehydrogenase, mitochondrial (Homo sapiens) (UniProt P05091); assay: qHTS for Inhibitors of the Aldehyde Dehydrogenase Family (ALDH2) Primary screen (AID 2061308); settings: ALDH2 enzyme inhibition qHTS, 1536-well; series mostly up to 56 µM; also: nearly all actives have a fitted effect of over 55% in size
Records with an inconclusive call do not appear. Activity calls are given as the source filed them. Calls follow the shape of the dose curve; as a rule, active = well fitted inhibition curve with a large enough effect; inconclusive = small, poorly fitted or top-dose-only effect; inactive = flat fitted curve, though single readings scatter.
In this exercise, the only acceptable responses are yes = active, no = inactive

Give the logged outcome of this assay for the following compound: Cc1nc(N2CCOCC2)c2nc(-c3ccccc3)n(CCN3CCCCC3)c2n1 no

Others:
Give the logged outcome of this assay for the following compound: COc1cccc(Cn2ncc3c4sc(Br)cc4n(C)c3c2=O)c1 no

Give the logged outcome of this assay for the following compound: O=C(Nc1ncc(Cc2ccc(C(F)(F)F)cc2)s1)c1ccc(-c2ccc([N+](=O)[O-])cc2)o1 no

Give the logged outcome of this assay for the following compound: Cc1ccnc(NC(=S)N2CCN(c3ccc(Br)cc3)CC2)c1 no

Give the logged outcome of this assay for the following compound: Cc1cnc(-c2ccccc2C(C)C)nc1NCc1cccnc1 no

Give the logged outcome of this assay for the following compound: O=C(O)c1cccc(S(=O)(=O)N2CCN(S(=O)(=O)c3ccc4c(c3)OCCO4)CC2)c1 no

Give the logged outcome of this assay for the following compound: Cc1c(C(=O)OCC2CCCCO2)[nH]c2c1C(=O)CC(c1ccco1)C2 (stereo not given) no

Give the logged outcome of this assay for the following compound: O=C(Nc1ncc(Cc2ccc(C(F)(F)F)cc2)s1)c1ccco1 no

Give the logged outcome of this assay for the following compound: CCc1c(C)nc2cc(-c3ccc(OC)c(OC)c3)nn2c1N1CCCC1 no

Give the logged outcome of this assay for the following compound: CC(C)N1CCc2c(sc(NC(=O)c3ccccc3)c2-c2nc3ccccc3s2)C1 yes
